B1: PHTF1 (parent)
chain: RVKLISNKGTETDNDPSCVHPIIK

Variants of: B1
Experiment: protein stability index of a GFP-peptide fusion (GPS, HEK-293T) (PSI 1-6); higher = more stable;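 note: lentivirally expressed fusions sorted by FACS into six bins by GFP to DsRed ratio, PSI derived from sequencing read proportions per bin multiplied by bin number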
Settings: c terminus: a fixed tail appended
Property name: protein stability index
# print the numeric value only

Examples from the recorded data:
S17H    4.06
P21E    4.03
T10G    4.01
P16N    3.68
I5S    4.3
I23C    4.67

Query: Indicate its recorded protein stability index; the variant in question is "K24W"
Response: 2.73
